assay: chemical genetic growth profiling, strain panel (AID 1159580);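 further: tested at 20 µM; growth read once vehicle control cultures reached saturation at 30 °C; 1 = growth at the plate median or of vehicle wells; lower values mean less growth of the strain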; settings: S. cerevisiae deletion strains, growth OD, locus YKL068W
In all, about 5,500 compounds went through this assay and about 2,000 (36%) were called active. Roughly 18% stayed inconclusive and do not appear here. No stated cut-off is given here; in the data, active means normalized growth mostly below about 0.91 (no sharp cut-off); inconclusive means no clear call, values can overlap the other calls; inactive means mostly above about 0.92. Some of the results follow.
Bench note: report the call from 1.0 = active, 0.0 = inactive

Consider the following illustrative entries.
>>> group_label("COc1ccc(-c2cc(=O)c3c(O)cc(O)cc3o2)cc1O")
0.0
>>> group_label("CC(C)=CC1C(CO)C1(C)C (stereo unspecified)")
0.0
>>> group_label("C[C@]12CC[C@H](O)C[C@H]1CCC1C2CC[C@]2(C)[C@@H](C3=CC(=O)OC3)[C@@H](O)C[C@]12O (stereo partly specified)")
0.0

## Input Test call for this molecule, please: "Cc1cc(N)c2ccccc2[n+]1CCCCCCCCCC[n+]1c(C)cc(N)c2ccccc21"
## Output 1.0

## Input Give the logged outcome of this assay for the following molecule: O=c1c(O)cccc2c(C3Oc4cc(O)cc(O)c4CC3O)cc(O)c(O)c12 (stereo unspecified)
## Output 1.0

## Input I'd appreciate the recorded outcome for "CC[C@@]1(O)C(=O)OCc2c1cc1n(c2=O)Cc2cc3ccccc3nc2-1" from this test.
## Output 0.0

## Input Assay outcome for "CCc1ccc2c(O)c3c(cc2c1C(=O)OC)C(=O)c1c(O)ccc(O)c1C3=O" : what was it?
## Output 0.0

## Input What is the recorded call for this molecule in the test? COC1=CC(C)[C@@H]2C[C@H]3OC(=O)C[C@H]4C(C)=C(OC)C(=O)C([C@@]34C)[C@@]2(C)C1=O (stereo partly specified)
## Output 0.0

Hello, the source for this data is PubChem BioAssay AID1159580, in case you need it.
